# TARGET_OR_TEST_SYSTEM: T1, Recombinant human CypA (human, UniProt P62937 1-165, Monolith RED-NHS 2nd generation fluorescent label, in the MST experiments only)
# T1 construct: extra N-terminal gly residue left after TEV cleavage; cyclophilin A (CypA), human; Unlabeled in SEC and SPR, labeled in MST; also called cyclophilin A; labeled CypA; source: E. coli BL21 λDE3, purified (Ni-NTA, TEV cleavage, second Ni-NTA); not shown: His6, N-terminal, cleaved
# T1 sequence (P62937 other isoform, or with tags, fused parts or gaps): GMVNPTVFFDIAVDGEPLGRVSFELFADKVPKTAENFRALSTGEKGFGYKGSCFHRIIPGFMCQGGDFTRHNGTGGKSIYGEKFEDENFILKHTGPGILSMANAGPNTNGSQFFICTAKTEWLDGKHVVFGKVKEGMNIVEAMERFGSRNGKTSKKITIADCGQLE
# EXPERIMENT: MST; fluorescently labeled CypA at 50 nM, partner titrated; where indicated CypA first mixed with 20 µM CA or 1 µM Tat; 20°C, 150 mM NaCl, 50 mM citrate, pH 7.3, 0.05% Tween
# TEST_CONDITIONS: both partners purified
pKd: −log10 of the molar value.

# BINDER, pKd
records = [
    ("Recombinant Tat (86 residues, BH10 isolate) (natural protein, HIV-1 Tat, BH10 isolate, 86 residues; source: E. coli, purified (as Vendeville et al., 2004); lyophilized) MEPVDPRLEPWKHPGSQPKTACTNCYCKKCCFHCQVCFITKALGISYGRKKRRQRRRPPQGSQTHQVSLSKQPTSQSRGDPTGPKE", 6.61),
]
